Experiment: in vitro
Settings: both, human, hepatocytes, pH 7.4
measurementLabel: hepatocyte CLint (µL/min/1e6 cells)
Express the result in µL/min/1e6 cells but write the number alone.

Kindly indicate its recorded hepatocyte CLint. Item: C[C@]12CC[C@H]3[C@@H](CCC4=CC(=O)CC[C@@]43C)[C@@H]1CC[C@@H]2O [testosterone, reference compound]
212

----------
Assay: in vivo
Conditions: SCID, mouse, FaDu tumor, iv
measurementLabel: Tmax (min)
Express the result in min but write the number alone.

Kindly indicate its recorded Tmax. Item: CCC1(O)C(=O)OCc2c1cc1n(c2=O)Cc2cc3cc4c(cc3nc2-1)OCO4 (stereo not shown)
10

----------
Target: UniProt P20813
Sequence (P20813 whole entry): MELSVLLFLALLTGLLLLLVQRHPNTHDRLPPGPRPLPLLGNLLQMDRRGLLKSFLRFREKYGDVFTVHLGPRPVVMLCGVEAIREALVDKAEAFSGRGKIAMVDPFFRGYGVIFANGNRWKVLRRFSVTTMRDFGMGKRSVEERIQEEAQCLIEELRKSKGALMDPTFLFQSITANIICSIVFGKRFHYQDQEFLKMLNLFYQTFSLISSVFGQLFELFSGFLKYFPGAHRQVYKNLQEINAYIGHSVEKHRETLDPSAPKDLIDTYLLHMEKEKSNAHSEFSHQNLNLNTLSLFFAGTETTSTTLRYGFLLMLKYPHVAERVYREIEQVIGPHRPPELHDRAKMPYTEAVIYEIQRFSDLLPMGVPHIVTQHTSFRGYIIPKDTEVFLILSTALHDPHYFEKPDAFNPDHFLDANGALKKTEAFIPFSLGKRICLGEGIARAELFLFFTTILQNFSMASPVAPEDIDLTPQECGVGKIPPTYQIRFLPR
Assay: in vitro
Details: human, microsomes, pH 7.4
measurementLabel: inhibition at 1 µM (%)
Express the result in % but write the number alone.

Kindly indicate its recorded inhibition at 1 µM. Item: CCC1(O)C(=O)OCc2c1cc1n(c2=O)Cc2cc3cc4c(cc3nc2-1)OCO4 (stereo not shown)
0
